Values compiled from patent US20240391954A1.

target: human MC3R (human, UniProt P41968 1-323); assay: cell-based or functional assay
Sequence (P41968 whole entry): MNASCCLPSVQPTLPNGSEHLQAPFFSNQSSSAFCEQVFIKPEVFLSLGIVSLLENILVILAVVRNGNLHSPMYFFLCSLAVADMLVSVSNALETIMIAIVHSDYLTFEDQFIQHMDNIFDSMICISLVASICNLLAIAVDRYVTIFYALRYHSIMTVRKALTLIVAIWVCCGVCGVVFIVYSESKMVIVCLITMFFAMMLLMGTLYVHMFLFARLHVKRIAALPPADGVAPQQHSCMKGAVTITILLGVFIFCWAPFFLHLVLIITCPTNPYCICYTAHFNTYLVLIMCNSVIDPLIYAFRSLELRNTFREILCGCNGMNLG
Positions of bridges follow the written chain, without caps; N, C: chain ends. Non-standard residues stand in square brackets, D forms with d. NMeR = CN[C@@H](CCCNC(=N)N)C(=O)O; Cit = NC(=O)NCCC[C@H](N)C(=O)O; Aib = CC(C)(N)C(=O)O
// reported % max activation per item
Write the answer as a number in %, unit excluded.

[[record]]
binder = "Ac-RC[Aib][Cit][dF]RWC-NH2 (disulfide 2-8) [CTX-1289]"
readoutnumber = 21

[[record]]
binder = "{CH2CO}-GH[dF]RWC-NH2 (thioether N-6; SMILES N=C(N)NCCC[C@@H]1NC(=O)[C@@H](Cc2ccccc2)NC(=O)[C@H](Cc2c[nH]cn2)NC(=O)CNC(=O)CSC[C@@H](C(N)=O)NC(=O)[C@H](Cc2c[nH]c3ccccc23)NC1=O) [CTX-1644]"
readoutnumber = 107


# context switch: different binder, same % max activation
Query: What does the data say about its % max activation? Entry: Ac-RC[dA]R[dF][NMeR][dW]C-NH2 (disulfide 2-8; SMILES CC(=O)N[C@@H](CCCNC(=N)N)C(=O)N[C@H]1CSSC[C@@H](C(N)=O)NC(=O)[C@@H](Cc2c[nH]c3ccccc23)NC(=O)[C@H](CCCNC(=N)N)N(C)C(=O)[C@@H](Cc2ccccc2)NC(=O)[C@H](CCCNC(=N)N)NC(=O)[C@@H](C)NC1=O) [CTX-1284]
Result: 45
